For each of the molecules below, state its pEC50.
target: Toll-like receptor 2 (Homo sapiens, UniProt O60603); experiment: Agonist activity at TLR2 (unknown origin)
Sequence (O60603 whole entry): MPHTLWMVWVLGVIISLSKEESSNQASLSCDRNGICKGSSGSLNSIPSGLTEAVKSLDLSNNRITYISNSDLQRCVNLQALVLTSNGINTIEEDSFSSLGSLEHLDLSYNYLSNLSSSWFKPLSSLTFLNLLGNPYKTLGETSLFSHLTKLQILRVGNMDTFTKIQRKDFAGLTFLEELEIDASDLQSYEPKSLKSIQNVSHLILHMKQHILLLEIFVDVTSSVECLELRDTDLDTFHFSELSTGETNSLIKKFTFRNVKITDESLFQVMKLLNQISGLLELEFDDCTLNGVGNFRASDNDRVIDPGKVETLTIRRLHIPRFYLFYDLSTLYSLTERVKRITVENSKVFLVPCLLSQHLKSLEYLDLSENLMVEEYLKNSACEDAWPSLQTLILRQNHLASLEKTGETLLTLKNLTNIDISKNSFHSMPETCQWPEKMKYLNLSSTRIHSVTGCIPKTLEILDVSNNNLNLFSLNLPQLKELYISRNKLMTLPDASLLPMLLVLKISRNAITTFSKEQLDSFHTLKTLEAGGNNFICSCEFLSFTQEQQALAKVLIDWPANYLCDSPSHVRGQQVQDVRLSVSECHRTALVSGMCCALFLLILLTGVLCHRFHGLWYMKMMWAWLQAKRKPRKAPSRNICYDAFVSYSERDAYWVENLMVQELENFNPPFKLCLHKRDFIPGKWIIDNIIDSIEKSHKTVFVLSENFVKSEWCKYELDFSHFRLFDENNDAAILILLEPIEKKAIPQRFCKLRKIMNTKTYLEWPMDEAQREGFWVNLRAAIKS
Scale explanation: pEC50 corresponds to minus log10 of a concentration expressed in moles per litre.

I'd like to know its pEC50. The molecule in question is `CCCCCCCCCCCCCCCC(=O)OC[C@H](CSC[C@H](NC(C)=O)C(=O)N[C@@H](CO)C(=O)N[C@@H](CCCCN)C(=O)N[C@@H](CCCCN)C(=O)N[C@@H](CCCCN)C(=O)N[C@@H](CCCCN)C(=O)N[C@@H](CO)C(=O)N[C@@H](CC(C)C)C(=O)N[C@H](CN[C@@H](CCSC)C(=O)N[C@@H](Cc1c[nH]c2ccccc12)C(=O)N[C@H](C(=O)N[C@H](C(=O)N[C@@H](CCC(N)=O)C(=O)N[C@H](C(=O)O)C(C)C)[C@@H](C)O)[C@@H](C)CC)CC(C)C)OC(=O)CCCCCCCCCCCCCCC`
9.55

Recorded pEC50 of `CCCCCCCCCCCCCCCC(=O)OCCCC[C@H](CSC[C@H](N)C(=O)N[C@@H](CO)C(=O)N[C@@H](CCCCN)C(=O)N[C@@H](CCCCN)C(=O)N[C@@H](CCCCN)C(=O)N[C@@H](CCCCN)C(=O)N[C@@H](CO)C(=O)N[C@@H](CC(C)C)C(=O)N[C@H](CN[C@@H](CCSC)C(=O)N[C@@H](Cc1c[nH]c2ccccc12)C(=O)N[C@H](C(=O)N[C@H](C(=O)N[C@@H](CCC(N)=O)C(=O)N[C@H](C(=O)O)C(C)C)[C@@H](C)O)[C@@H](C)CC)CC(C)C)OC(=O)CCCCCCCCCCCCCCC` , please.
9.52

For the molecule `CCCCCCCCCCCCCCCC(=O)OC[C@H](CSC[C@H](N)C(=O)N[C@@H](CO)C(=O)N[C@@H](CCCCN)C(=O)N[C@@H](CCCCN)C(=O)N[C@@H](CCCCN)C(=O)N[C@@H](CCCCN)C(=O)N[C@@H](CO)C(=O)N[C@@H](CC(C)C)C(=O)N[C@H](CN[C@@H](CCSC)C(=O)N[C@@H](Cc1c[nH]c2ccccc12)C(=O)N[C@H](C(=O)N[C@H](C(=O)N[C@@H](CCC(N)=O)C(=O)N[C@H](C(=O)O)C(C)C)[C@@H](C)O)[C@@H](C)CC)CC(C)C)OC(=O)CCCCCCCCCCCCCCC` , what pEC50 is on record?
9.33

// data source = ChEMBL document CHEMBL4680280
